- Target Of Assay: T1, human C1s (human, UniProt P09871 16-688)
- T1 construct: Analyte in the Biacore assays; also called hC1s; serum-derived human C1s (CompTech)
- T1 sequence: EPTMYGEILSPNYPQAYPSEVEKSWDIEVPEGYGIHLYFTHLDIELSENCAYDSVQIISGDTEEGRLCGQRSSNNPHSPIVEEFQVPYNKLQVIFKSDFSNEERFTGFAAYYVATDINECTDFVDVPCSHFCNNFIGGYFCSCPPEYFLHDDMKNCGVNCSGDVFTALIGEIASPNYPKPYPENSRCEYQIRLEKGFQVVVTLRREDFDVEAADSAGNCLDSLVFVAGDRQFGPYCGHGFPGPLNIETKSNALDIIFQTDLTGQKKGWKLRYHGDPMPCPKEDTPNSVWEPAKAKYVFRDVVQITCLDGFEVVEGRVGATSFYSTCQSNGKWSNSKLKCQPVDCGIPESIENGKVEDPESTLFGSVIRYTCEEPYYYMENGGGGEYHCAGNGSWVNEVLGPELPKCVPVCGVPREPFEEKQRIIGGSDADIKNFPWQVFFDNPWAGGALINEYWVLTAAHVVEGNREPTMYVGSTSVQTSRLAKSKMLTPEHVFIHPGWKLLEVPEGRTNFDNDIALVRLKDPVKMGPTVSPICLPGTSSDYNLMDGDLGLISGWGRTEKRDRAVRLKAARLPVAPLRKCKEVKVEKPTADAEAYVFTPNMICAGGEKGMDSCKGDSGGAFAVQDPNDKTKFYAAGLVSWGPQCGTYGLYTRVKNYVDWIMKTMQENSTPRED
- Method Description: SPR; KD at pH 5.8 (1.2 mM Ca) over KD at pH 7.4 (1.2 mM Ca)
Outcome Measure: KD 5(+)/7(+)
Enter the number alone.

Fill in reported KD 5(+)/7(+) for this entry: C1_IPN92H0166-SG4GK/IPN93L0024-SK1 (antibody, human IgG4 S228P, kappa, name in Kabat numbering, V domains shown, Substitutions from IPN009VH2, Kabat numbering; also called IPN92H0166/IPN93L0024) VH: EVMLVESGGGLVKPGGSLRLSCAASGFTFSNYAMSWVRQAPGKGLEWVATISSGGSHTYYEDSVKGRFTISRDNSKDTLYLQMNSLRAEDTALYYCARLFTGHAMDYWGQGTLVTVSS VL: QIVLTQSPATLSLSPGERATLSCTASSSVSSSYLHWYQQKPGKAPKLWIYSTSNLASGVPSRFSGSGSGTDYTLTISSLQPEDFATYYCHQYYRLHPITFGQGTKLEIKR 2.1

Fill in reported KD 5(+)/7(+) for this entry: C1_IPN92H0157-SG4GK/IPN93L0024-SK1 (antibody, human IgG4 S228P, kappa, name in Kabat numbering, V domains shown, Substitutions from IPN009VH2, Kabat numbering; also called IPN92H0157/IPN93L0024) VH: EVMLVESGGGLVKPGGSLRLSCAASGFTFSNYAMSWVRQAPGKGLEWVATISSGGSHTRYLDSVKGRFTISRDNSKDTLYLQMNSLRAEDTALYYCARLFTGHAMDYWGQGTLVTVSS VL: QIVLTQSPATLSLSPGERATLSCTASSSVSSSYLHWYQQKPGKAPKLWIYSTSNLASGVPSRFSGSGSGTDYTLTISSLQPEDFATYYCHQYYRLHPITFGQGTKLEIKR 9.3

Fill in reported KD 5(+)/7(+) for this entry: C1_IPN92H0282-SG4GK/IPN93L0024-SK1 (antibody, human IgG4 S228P, kappa, name in Kabat numbering, V domains shown, Substitutions from IPN009VH2, Kabat numbering; also called IPN92H0282/IPN93L0024) VH: EVMLVESGGGLVKPGGSLRLSCAASGFTFSNYAMSWVRQAPGKGLEWVATISSGGSHTYELDSVDERFTISRDNSKDTLYLQMNSLRAEDTALYYCARLFTKHAMDYWGQGTLVTVSS VL: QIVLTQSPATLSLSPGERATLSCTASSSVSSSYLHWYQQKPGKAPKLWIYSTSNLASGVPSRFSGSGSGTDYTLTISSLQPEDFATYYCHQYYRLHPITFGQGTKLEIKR 10.9

Fill in reported KD 5(+)/7(+) for this entry: C1_IPN92H0165-SG4GK/IPN93L0024-SK1 (antibody, human IgG4 S228P, kappa, name in Kabat numbering, V domains shown, Substitutions from IPN009VH2, Kabat numbering; also called IPN92H0165/IPN93L0024) VH: EVMLVESGGGLVKPGGSLRLSCAASGFTFSNYAMSWVRQAPGKGLEWVATISSGGSHTYYDDSVKGRFTISRDNSKDTLYLQMNSLRAEDTALYYCARLFTGHAMDYWGQGTLVTVSS VL: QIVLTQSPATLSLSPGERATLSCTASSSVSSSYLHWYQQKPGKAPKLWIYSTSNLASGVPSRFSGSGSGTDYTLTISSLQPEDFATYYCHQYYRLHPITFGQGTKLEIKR 2.1

Fill in reported KD 5(+)/7(+) for this entry: C1_IPN92H0281-SG4GK/IPN93L0091-SK1 (antibody, human IgG4 S228P, kappa, name in Kabat numbering, V domains shown, Substitutions from IPN009VH2 / IPN009VK3, Kabat numbering; also called IPN92H0281/IPN93L0091) VH: EVMLVESGGGLVKPGGSLRLSCAASGFTFSNYAMSWVRQAPGKGLEWVATISSGGSKTYELDSVDERFTISRDNSKDTLYLQMNSLRAEDTALYYCARLFTKHAMDYWGQGTLVTVSS VL: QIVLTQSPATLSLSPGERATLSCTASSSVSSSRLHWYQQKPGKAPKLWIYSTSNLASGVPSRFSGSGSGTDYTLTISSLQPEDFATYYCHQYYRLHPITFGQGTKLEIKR 2.4

Fill in reported KD 5(+)/7(+) for this entry: C1_IPN92H0080-SG4GK/IPN93L0024-SK1 (antibody, human IgG4 S228P, kappa, name in Kabat numbering, V domains shown, Substitutions from IPN009VH2, Kabat numbering; also called IPN92H0080/IPN93L0024) VH: EVMLVESGGGLVKPGGSLRLSCAASGFTFSNRAMSWVRQAPGKGLEWVATISSGGSHTYYLDSVKGRFTISRDNSKDTLYLQMNSLRAEDTALYYCARLFTGHAMDYWGQGTLVTVSS VL: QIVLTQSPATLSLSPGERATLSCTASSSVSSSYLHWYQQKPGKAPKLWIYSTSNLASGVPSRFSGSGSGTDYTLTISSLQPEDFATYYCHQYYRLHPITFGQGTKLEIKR 5

Fill in reported KD 5(+)/7(+) for this entry: C1_IPN92H0279-SG4GK/IPN93L0091-SK1 (antibody, human IgG4 S228P, kappa, name in Kabat numbering, V domains shown, Substitutions from IPN009VH2 / IPN009VK3, Kabat numbering; also called IPN92H0279/IPN93L0091) VH: EVMLVESGGGLVKPGGSLRLSCAASGFTFSNYAMSWVRQAPGKGLEWVATISSGGSHTYELDSVKERFTISRDNSKDTLYLQMNSLRAEDTALYYCARLFTKHAMDYWGQGTLVTVSS VL: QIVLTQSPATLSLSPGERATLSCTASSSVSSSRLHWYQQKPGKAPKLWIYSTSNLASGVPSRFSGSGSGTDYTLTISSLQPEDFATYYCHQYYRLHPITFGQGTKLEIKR 29.2

Fill in reported KD 5(+)/7(+) for this entry: C1_IPN92H0194-SG4GK/IPN93L0024-SK1 (antibody, human IgG4 S228P, kappa, name in Kabat numbering, V domains shown, Substitutions from IPN009VH2, Kabat numbering; also called IPN92H0194/IPN93L0024) VH: EVMLVESGGGLVKPGGSLRLSCAASGFTFSNYAMSWVRQAPGKGLEWVATISSGGSHTYYLDSVKERFTISRDNSKDTLYLQMNSLRAEDTALYYCARLFTGHAMDYWGQGTLVTVSS VL: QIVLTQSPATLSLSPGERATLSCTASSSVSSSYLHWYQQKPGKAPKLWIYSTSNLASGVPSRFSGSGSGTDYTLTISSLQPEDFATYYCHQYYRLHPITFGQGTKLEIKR 6.5

Fill in reported KD 5(+)/7(+) for this entry: C1_IPN92H0232-SG4GK/IPN93L0024-SK1 (antibody, human IgG4 S228P, kappa, name in Kabat numbering, V domains shown, Substitutions from IPN009VH2, Kabat numbering; also called IPN92H0232/IPN93L0024) VH: EVMLVESGGGLVKPGGSLRLSCAASGFTFSNYAMSWVRQAPGKGLEWVATISSGGSHTYYLDSVKGRFTISRDNSKDTLYLQMNSLRAEDTALYYCARLFTRHAMDYWGQGTLVTVSS VL: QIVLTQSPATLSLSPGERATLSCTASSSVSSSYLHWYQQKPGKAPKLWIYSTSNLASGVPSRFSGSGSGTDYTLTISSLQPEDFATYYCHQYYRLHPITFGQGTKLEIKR 5.7

Fill in reported KD 5(+)/7(+) for this entry: C1_IPN92H0159-SG4GK/IPN93L0024-SK1 (antibody, human IgG4 S228P, kappa, name in Kabat numbering, V domains shown, Substitutions from IPN009VH2, Kabat numbering; also called IPN92H0159/IPN93L0024) VH: EVMLVESGGGLVKPGGSLRLSCAASGFTFSNYAMSWVRQAPGKGLEWVATISSGGSHTYDLDSVKGRFTISRDNSKDTLYLQMNSLRAEDTALYYCARLFTGHAMDYWGQGTLVTVSS VL: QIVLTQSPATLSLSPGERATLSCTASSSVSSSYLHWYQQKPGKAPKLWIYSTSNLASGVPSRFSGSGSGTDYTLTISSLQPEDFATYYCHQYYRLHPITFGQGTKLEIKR 8.1

Cited source: patent US20210032365A1
